STUDY_SYSTEM: NR1/NR2B (Homo sapiens (Human), UniProt Q05586+Q13224)
Sequence (Q13224 27-1484, other chains not shown): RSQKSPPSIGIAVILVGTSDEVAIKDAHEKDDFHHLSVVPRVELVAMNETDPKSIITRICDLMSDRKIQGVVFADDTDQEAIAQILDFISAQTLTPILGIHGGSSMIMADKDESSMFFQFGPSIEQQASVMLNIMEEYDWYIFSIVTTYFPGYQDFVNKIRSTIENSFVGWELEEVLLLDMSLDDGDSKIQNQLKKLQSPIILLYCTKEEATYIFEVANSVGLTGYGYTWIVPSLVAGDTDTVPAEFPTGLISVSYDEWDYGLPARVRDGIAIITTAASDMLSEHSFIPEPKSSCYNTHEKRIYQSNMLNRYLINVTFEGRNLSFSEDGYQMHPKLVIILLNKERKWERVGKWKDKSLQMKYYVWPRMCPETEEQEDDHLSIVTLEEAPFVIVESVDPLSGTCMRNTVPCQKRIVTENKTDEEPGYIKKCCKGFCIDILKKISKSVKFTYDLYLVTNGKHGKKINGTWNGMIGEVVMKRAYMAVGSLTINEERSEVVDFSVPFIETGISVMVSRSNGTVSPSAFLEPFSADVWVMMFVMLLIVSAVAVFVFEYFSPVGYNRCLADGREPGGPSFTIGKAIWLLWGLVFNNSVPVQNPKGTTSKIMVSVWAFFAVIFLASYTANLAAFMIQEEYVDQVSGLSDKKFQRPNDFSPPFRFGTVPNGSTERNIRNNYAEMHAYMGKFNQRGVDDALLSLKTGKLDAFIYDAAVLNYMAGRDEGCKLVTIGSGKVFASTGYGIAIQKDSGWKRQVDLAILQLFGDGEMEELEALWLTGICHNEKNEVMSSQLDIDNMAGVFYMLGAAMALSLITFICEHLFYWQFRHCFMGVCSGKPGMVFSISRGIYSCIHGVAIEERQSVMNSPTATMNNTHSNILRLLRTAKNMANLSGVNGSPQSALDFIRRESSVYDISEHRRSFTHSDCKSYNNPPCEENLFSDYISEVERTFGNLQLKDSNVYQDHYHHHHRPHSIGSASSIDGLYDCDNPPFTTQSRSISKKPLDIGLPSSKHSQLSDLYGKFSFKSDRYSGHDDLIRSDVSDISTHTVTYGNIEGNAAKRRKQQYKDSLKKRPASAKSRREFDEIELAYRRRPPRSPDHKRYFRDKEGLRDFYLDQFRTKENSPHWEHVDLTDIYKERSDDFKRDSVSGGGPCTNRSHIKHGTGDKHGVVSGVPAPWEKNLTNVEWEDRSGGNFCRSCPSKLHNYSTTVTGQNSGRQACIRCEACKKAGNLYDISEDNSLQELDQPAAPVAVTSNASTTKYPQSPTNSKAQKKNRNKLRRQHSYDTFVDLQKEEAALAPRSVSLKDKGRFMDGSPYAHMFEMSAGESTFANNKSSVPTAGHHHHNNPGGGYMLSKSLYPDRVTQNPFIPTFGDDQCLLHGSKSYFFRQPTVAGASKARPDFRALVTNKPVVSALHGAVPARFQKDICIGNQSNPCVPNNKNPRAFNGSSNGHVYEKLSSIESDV
ASSAY_OVERVIEW: Cell assay: FDSS Ca2+ influx inhibition in HEK293 cells expressing NR1/NR2B;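 further: Fluo-8 Ca2+ signal read on Hamamatsu FDSS 6000 after glutamate, glycine and Ca2+ challenge following 10 min compound preincubation, end/baseline fluorescence ratio compared with MK801 control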
CONDITION_INFO: Binned Activity, HEK293 cells expressing NR1/NR2B, Ca2+ influx; binned NR2B NAM IC50
pIC50: −log10 of the molar value.
OUTCOME_MEASURE: pIC50

State the recorded pIC50 for every item in the following list.
1. Oc1ccc([C@@H](O)CN2C[C@@H]3C[C@@](O)(Cc4ccc(F)cc4)C[C@@H]3C2)nc1
2. Cc1ccccc1[C@]1(O)C[C@H]2CN(C(C)C(=O)c3ccc(O)cc3)C[C@H]2C1 (mixture of isomers)

[A]
1. > 7.00
2. < 5.00

Provide pIC50 values for the following items, in order.
1. Oc1ccc([C@@H](O)CN2C[C@@H]3C[C@](O)(Cc4ccccc4)C[C@@H]3C2)cc1
2. Oc1ccc([C@@H](O)CN2C[C@@H]3C[C@@](O)(Cc4ccccc4)C[C@@H]3C2)nc1

[A]
1: 6.00 to 7.00; 2: > 7.00
